Data credit: patent US20200087363A1

Target: T1, HLA-B*44:05 (human)
T1 construct: also called peptide-receptive MHC class I molecule
Assay: UV peptide exchange, anti-b2m ELISA
Provide the recorded peptide exchange yield for the entries that follow.

Binder: QELMAFSFAGL
Observed: > 75%

Please state peptide exchange yield for every binder in the list that follows.
1. WEVEVGDRTDW
2. QEVGEITNL
3. DEDYTYLIL
4. AELDSKILAL
5. NESDRLVYF
6. SESPIRISV

Reply:
1. 50 to 75%
2. 50 to 75%
3. 20 to 50%
4. 50 to 75%
5. 50 to 75%
6. 50 to 75%
